# measurement_target: 5-hydroxytryptamine receptor 1A (Homo sapiens, UniProt P08908)
# Sequence (P08908 whole entry): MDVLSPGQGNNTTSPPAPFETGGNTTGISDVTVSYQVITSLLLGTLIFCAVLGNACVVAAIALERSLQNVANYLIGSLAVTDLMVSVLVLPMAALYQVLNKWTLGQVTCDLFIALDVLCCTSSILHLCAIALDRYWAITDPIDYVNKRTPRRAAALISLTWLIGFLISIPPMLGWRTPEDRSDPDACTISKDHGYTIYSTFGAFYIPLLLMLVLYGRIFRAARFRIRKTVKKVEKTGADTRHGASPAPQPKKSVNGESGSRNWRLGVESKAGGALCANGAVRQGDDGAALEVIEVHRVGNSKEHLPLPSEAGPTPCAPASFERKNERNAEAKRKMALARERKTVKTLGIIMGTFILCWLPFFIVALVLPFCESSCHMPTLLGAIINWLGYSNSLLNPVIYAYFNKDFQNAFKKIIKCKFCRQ
pKi: −log10 of the molar value.
experimental_endpoint: pKi

>  <compound_string>
O=c1n(CCCCN2CCN(c3cccc4ccccc34)CC2)c(O)c2n1CCC2

>  <endpoint_value>
8.62

$$$$
